Molecular target: T1, muCTGF domains 1 and 2 with human Fc tag (murine)
T1 construct: Made by Evitria; also called Murine CTGF1-2-huFc
T1 sequence (chain, as listed by the source limits assumed): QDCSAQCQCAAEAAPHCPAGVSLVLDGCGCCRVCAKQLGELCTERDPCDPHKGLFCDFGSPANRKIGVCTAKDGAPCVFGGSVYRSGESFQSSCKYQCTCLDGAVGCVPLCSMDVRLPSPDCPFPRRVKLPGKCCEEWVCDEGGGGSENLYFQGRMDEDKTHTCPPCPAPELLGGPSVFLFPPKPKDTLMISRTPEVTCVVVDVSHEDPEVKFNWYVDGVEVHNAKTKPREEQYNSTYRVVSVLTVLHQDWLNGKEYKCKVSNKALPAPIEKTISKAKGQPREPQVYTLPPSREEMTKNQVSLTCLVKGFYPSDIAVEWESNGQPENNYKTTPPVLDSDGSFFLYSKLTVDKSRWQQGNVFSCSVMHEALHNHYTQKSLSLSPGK
Assay: ELISA, coated target
assay.readout: pEC50
Give bare numbers, as −log10 of the molar value.

Field request: pEC50 | item: lipocalin mutein of SEQ ID NO: 9 (designed binder, Parent hNGAL mutein; also called hNGAL mutein) QDSTSDLIPAPPLSKVPLQQNFQDNQFHGKWYVVGLAGNKILRIDKQPAKMFATIYELKEDKSYDVTSVRFEARSCSYTIKTFVPGSQPGEFTAGNIKSAPGQTSTLVRVVSTNYNQHAMVFFKHVSQNRETFVITLYGRTKELTSELKENFIRFSKSLGLPENHIVFPVPIDQCIDGSAWSHPQFEK
8.24
